The following binders are listed with their measured EC50 values.
biological target: T1, human CLDN18.2 (human); test: FACS on NUGC4_D8 cells
T1 construct: the HEK293 line was made with a GenScript plasmid; also called hCLDN18.2
I only need the number, in nM, no unit after it.

// known answers, use as guide
[[record]]
binder = "PR004953 (antibody, V domains shown, anti-CLDN18.2 HCAb: VH fused to human IgG1 Fc, no light chain; also called R1029P024B07) VH: EVQLVESGGGVVQPGRSLRLSCAASGFTFSSYGMHWVRQAPGKGLEWVAVIGYDGRNKYYADSVKGRFTISRDNSKNTLFLQMDNLRAEDTALYYCARHFPSLPGTTDTFDIRGPGTMVTVSS"
readoutunits = "nM"
val = 12

[[record]]
binder = "PR000400 (antibody, human IgG1, kappa, V domains shown, also called IMAB362 analogue) VH: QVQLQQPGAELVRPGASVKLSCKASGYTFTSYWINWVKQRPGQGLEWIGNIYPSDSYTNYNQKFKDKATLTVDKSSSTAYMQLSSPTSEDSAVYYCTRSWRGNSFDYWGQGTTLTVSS VL: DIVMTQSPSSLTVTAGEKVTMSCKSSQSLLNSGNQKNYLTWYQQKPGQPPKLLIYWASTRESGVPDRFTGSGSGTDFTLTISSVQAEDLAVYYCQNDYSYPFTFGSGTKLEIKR"
readoutunits = "nM"
val = 17

[[record]]
binder = "PR004533 (antibody, V domains shown, anti-CLDN18.2 HCAb: VH fused to human IgG1 Fc, no light chain; also called R1029P021E10) VH: EVQLVESGGGLVQPGGSLRLSCAASGFTFSSYWMHWVRQVPGKGLVWVSRINSDGSRTIYADSVKGRFTISRDNAKNTLYLQMNSLRAEDTAVYYCARGEDHDILTGYPIRGQGTTVTVSS"
readoutunits = "nM"
val = 25

[[record]]
binder = "PR004949 (antibody, V domains shown, anti-CLDN18.2 HCAb: VH fused to human IgG1 Fc, no light chain; also called R1029P021C02) VH: EVQLVESGGGLVQPGGSLRLSCAASGFTFSAYWMHWVRQVPGRGLVWVSRINSDGSRTIYADSVKGRFTISRDNAKNTLYLQMNSLRAEDTAVYLCARGEDHDMLTGYPVRGQGTMVTVSS"
readoutunits = "nM"
val = 21.8


Would you kindly look at the next entry?
Indicate its recorded EC50; the binder in question is PR004950 (antibody, V domains shown, anti-CLDN18.2 HCAb: VH fused to human IgG1 Fc, no light chain; also called R1029P021F07) VH: EVQLVESGGGLVQPGGSLRLSCAASGFTFSAYWMHWVRQVPGKGLVWVSRINSDGSRTIYADSVKGRFTISRDNAKNTLYLQMNSLRAEDTAVYYCARGEDHDILTGYPIRGQGTMVTVSS
16.1
